- systemName: rat NaPi-2b (Rattus norvegicus, UniProt Q9JJ09)
- Construct: expressed in transfected cells; host or cells: Xenopus oocytes injected with cRNA
- Sequence (Q9JJ09 1-695): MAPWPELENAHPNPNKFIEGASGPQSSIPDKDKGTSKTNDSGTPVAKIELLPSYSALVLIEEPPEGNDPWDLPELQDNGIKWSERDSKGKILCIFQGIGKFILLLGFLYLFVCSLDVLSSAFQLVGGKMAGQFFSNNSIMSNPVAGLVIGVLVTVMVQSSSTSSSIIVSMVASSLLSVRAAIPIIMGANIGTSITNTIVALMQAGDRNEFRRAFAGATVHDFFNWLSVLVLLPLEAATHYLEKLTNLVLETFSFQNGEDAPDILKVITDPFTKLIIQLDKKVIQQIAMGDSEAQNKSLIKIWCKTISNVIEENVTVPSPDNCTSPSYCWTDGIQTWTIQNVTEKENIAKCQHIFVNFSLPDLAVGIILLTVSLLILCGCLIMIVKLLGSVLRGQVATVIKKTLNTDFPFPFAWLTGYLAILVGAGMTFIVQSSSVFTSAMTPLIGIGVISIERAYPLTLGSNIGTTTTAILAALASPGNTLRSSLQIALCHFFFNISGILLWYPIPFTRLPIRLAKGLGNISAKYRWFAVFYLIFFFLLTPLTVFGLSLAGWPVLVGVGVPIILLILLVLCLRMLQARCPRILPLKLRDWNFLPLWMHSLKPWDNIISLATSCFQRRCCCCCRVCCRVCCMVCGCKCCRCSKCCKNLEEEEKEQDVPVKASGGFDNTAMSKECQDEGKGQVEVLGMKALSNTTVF
- assayComment: Sodium-dependent phosphate uptake of Xenopus oocytes which expressed NaPi-2b (32P)
- Assay type: cell-based
- protocolConditions: phosphate uptake, oocytes expressing rat NaPi-2b; 300 μM, determined from inhibition curve
quantityKind: inhibition at 300 µM (%)
One number for each entry, in %.

| compound | readingUnit | inhibition at 300 µM |
| --- | --- | --- |
| CCOCCN(CCOCC)Cc1ccc(C(=O)Nc2ccc(Br)cc2C(=O)N/N=C/c2cccc(OC)c2)cc1 | % | 58.5 |

Each of the following entries comes with a recorded value; kindly state inhibition at 300 µM for each.
1. O=C(Nc1ccccc1C(=O)N/N=C/C=C/c1ccccc1)c1ccccc1
2. COc1ccc(/C=N/NC(=O)c2c(C)csc2NC(=O)c2cccc(CSCCS(=O)(=O)O)c2)cc1
3. CCN(CC)CCNCc1cccc(C(=O)Nc2c(C)csc2C(=O)N/N=C/c2cccc(F)c2)c1
4. CC(O)CN(Cc1cccc(C(=O)Nc2ncccc2C(=O)N/N=C/c2cccc(F)c2)c1)CC(C)O (stereo not drawn)

47.9
39.5
30.3
67.5

###

- systemName: rat NaPi-2b (Rattus norvegicus, UniProt Q9JJ09)
- assayComment: Sodium-dependent phosphate uptake of Xenopus oocytes which expressed NaPi-2b (32P)
- protocolConditions: Xenopus oocytes expressing rat NaPi-2b, 32P radioactive phosphorus; read-out: IC50 (phosphate uptake inhibitory activity)
Lab note: anything with IC50 below 4 µM is marked Met; values at 4 µM or higher are marked Not met.

| compound | classification |
| --- | --- |
| Cc1csc(NC(=O)c2cccc(CN3CCN(CCO)CC3)c2)c1C(=O)N/N=C/c1cccc(F)c1 | Met |
| Cc1cc(/C=N/NC(=O)c2cc(Cl)ccc2NC(=O)c2cccnc2)oc1C | Not met |
| O=C(Nc1sc2c(c1C(=O)N/N=C/c1ccc(F)cc1)CCCC2)c1cccc(CN2CCC(O)CC2)c1 | Met |

hey, is IC50 for `O=C(Nc1ccc(N2CCCCC2)cc1C(=O)N/N=C/c1ccc(Cl)c(C(F)(F)F)c1)c1cccc(CN2CCC(O)CC2)c1` lower than 4 µM or not?
Met

hey, is IC50 for COc1ccc(/C=N/NC(=O)c2c(NC(=O)c3cccc(CN(CC(C)O)CC(C)O)c3)sc3c2CCC3)cc1 (stereo not drawn) lower than 4 µM or not?
Not met

hey, is IC50 for Cc1ccc(/C=N/NC(=O)c2cc(Cl)ccc2NC(=O)c2cccc(CSCC(O)CO)c2)cc1C (stereo not drawn) lower than 4 µM or not?
Met

Source listed as patent US8134015B2.
